The measured values listed here are drawn from ChEMBL document CHEMBL3580646.

Assay: Clearance in Han Wistar rat at 1 mg/kg, iv
Type: ADME, organism-based
Conditions: in vivo

compound: C[C@H]1[C@H](NC(=O)/C(=N\OC(C)(C)C(=O)O)c2csc(N)n2)C(=O)N1C(=O)NS(=O)(=O)n1nc(-c2cc(=O)c(O)c[nH]2)n(CCCS(C)(=O)=O)c1=O
units label: mL/min/kg
clearance: 7.3
//
compound: C[C@H]1[C@H](NC(=O)/C(=N\OC(C)(C)C(=O)O)c2csc(N)n2)C(=O)N1C(=O)NS(=O)(=O)n1nc(-c2cc(=O)c(O)c[nH]2)n(CCS(C)(=O)=O)c1=O
units label: mL/min/kg
clearance: 8.9
//
compound: CC[C@H]1[C@H](NC(=O)/C(=N\OC(C)(C)C(=O)O)c2csc(N)n2)C(=O)N1C(=O)NS(=O)(=O)n1nc(-c2cc(=O)c(O)c[nH]2)n(CCCS(C)(=O)=O)c1=O
units label: mL/min/kg
clearance: 12
//
compound: C=C[C@H]1[C@H](NC(=O)/C(=N\OC(C)(C)C(=O)O)c2csc(N)n2)C(=O)N1C(=O)NS(=O)(=O)n1nc(-c2cc(=O)c(O)c[nH]2)n(CCCS(C)(=O)=O)c1=O
units label: mL/min/kg
clearance: 11
//
compound: C[C@H]1[C@H](NC(=O)/C(=N\OC(C)(C)C(=O)O)c2nsc(N)n2)C(=O)N1C(=O)NS(=O)(=O)n1nc(-c2cc(=O)c(O)c[nH]2)n(CCCS(C)(=O)=O)c1=O
units label: mL/min/kg
clearance: 9.5

----------
Collected K values appear next to each entry.
Test system: Pseudomonas aeruginosa
Test: Activity of Pseudomonas aeruginosa PBP3 assessed as acylation rate constant

compound: C=C[C@H]1[C@H](NC(=O)/C(=N\OC(C)(C)C(=O)O)c2csc(N)n2)C(=O)N1C(=O)NS(=O)(=O)n1nc(-c2cc(=O)c(O)c[nH]2)n(CCCS(C)(=O)=O)c1=O
target: Pseudomonas aeruginosa
K / ×10⁵ /M/s: 2.1

compound: CCC[C@@H]1[C@H](NC(=O)/C(=N\OC(C)(C)C(=O)O)c2csc(N)n2)C(=O)N1C(=O)NS(=O)(=O)n1nc(-c2cc(=O)c(O)c[nH]2)n(CCCS(C)(=O)=O)c1=O
target: Pseudomonas aeruginosa
K / ×10⁵ /M/s: 7.4

compound: C[C@@H]1[C@H](NC(=O)/C(=N\OC(C)(C)C(=O)O)c2csc(N)n2)C(=O)N1C(=O)NS(=O)(=O)n1nc(-c2cc(=O)c(O)c[nH]2)n(CCCS(C)(=O)=O)c1=O
target: Pseudomonas aeruginosa
K / ×10⁵ /M/s: 1.6

----------
Experiment: Unbound fraction in human plasma after 16 hrs by LC-MS/MS analysis
recorded metric: fraction unbound at 16 h

compound: C[C@H]1[C@H](NC(=O)/C(=N\OC(C)(C)C(=O)O)c2csc(N)n2)C(=O)N1C(=O)NS(=O)(=O)n1nc(-c2cc(=O)c(O)c[nH]2)n(CCS(C)(=O)=O)c1=O
recorded metric: fraction unbound at 16 h
measured number: 0.06

compound: C[C@H]1[C@H](NC(=O)/C(=N\OC(C)(C)C(=O)O)c2csc(N)n2)C(=O)N1C(=O)NS(=O)(=O)n1nc(-c2cc(=O)c(O)c[nH]2)n(CC2(CS(C)(=O)=O)CC2)c1=O
recorded metric: fraction unbound at 16 h
measured number: 0.09

compound: C[C@H]1[C@H](NC(=O)/C(=N\OC(C)(C)C(=O)O)c2nsc(N)n2)C(=O)N1C(=O)NS(=O)(=O)n1nc(-c2cc(=O)c(O)c[nH]2)n(CCCS(C)(=O)=O)c1=O
recorded metric: fraction unbound at 16 h
measured number: 0.27

compound: C[C@H]1[C@H](NC(=O)/C(=N\OC(C)(C)C(=O)O)c2csc(N)n2)C(=O)N1C(=O)NS(=O)(=O)n1nc(-c2cc(=O)c(O)c[nH]2)n(CCCS(=O)(=O)c2ccccc2)c1=O
recorded metric: fraction unbound at 16 h
measured number: 0.03

compound: CC(C)(O/N=C(\C(=O)N[C@H]1CN(C(=O)NS(=O)(=O)n2nc(-c3cc(=O)c(O)c[nH]3)n(C[C@@H](O)CO)c2=O)C1=O)c1csc(N)n1)C(=O)O
recorded metric: fraction unbound at 16 h
measured number: 0.06

compound: C[C@H]1[C@H](NC(=O)/C(=N\OC(C)(C)C(=O)O)c2csc(N)n2)C(=O)N1C(=O)NS(=O)(=O)n1nc(-c2cc(=O)c(O)cn2O)n(CCCS(C)(=O)=O)c1=O
recorded metric: fraction unbound at 16 h
measured number: 0.12

compound: C[C@H]1[C@H](NC(=O)/C(=N\OC(C)(C)C(=O)O)c2csc(N)n2)C(=O)N1C(=O)NS(=O)(=O)n1nc(-c2cc(=O)c(O)c[nH]2)n(CCCCS(C)(=O)=O)c1=O
recorded metric: fraction unbound at 16 h
measured number: 0.07

compound: C[C@H]1[C@H](NC(=O)/C(=N\OC(C)(C)C(=O)O)c2csc(N)n2)C(=O)N1C(=O)NS(=O)(=O)n1nc(-c2cc(=O)c(O)c[nH]2)n(CCCNS(C)(=O)=O)c1=O
recorded metric: fraction unbound at 16 h
measured number: 0.08

compound: C[C@H]1[C@H](NC(=O)/C(=N\OC(C)(C)C(=O)O)c2csc(N)n2)C(=O)N1C(=O)NS(=O)(=O)n1nc(-c2cc(=O)c(O)c[nH]2)n(CCNS(C)(=O)=O)c1=O
recorded metric: fraction unbound at 16 h
measured number: 0.08

compound: C[C@H]1[C@H](NC(=O)/C(=N\OC(C)(C)C(=O)O)c2csc(N)n2)C(=O)N1C(=O)NS(=O)(=O)n1nc(-c2cc(=O)c(O)c[nH]2)n(C[C@@H](O)CS(C)(=O)=O)c1=O
recorded metric: fraction unbound at 16 h
measured number: 0.04

----------
K by entry:
System: Pseudomonas aeruginosa
Test: Activity of Pseudomonas aeruginosa PBP3 assessed as acylation rate constant

compound: C=CC[C@@H]1[C@H](NC(=O)/C(=N\OC(C)(C)C(=O)O)c2csc(N)n2)C(=O)N1C(=O)NS(=O)(=O)n1nc(-c2cc(=O)c(O)c[nH]2)n(CCCS(C)(=O)=O)c1=O
K, ×10⁵ /M/s: 5.9

compound: C[C@H]1[C@H](NC(=O)/C(=N\OC(C)(C)C(=O)O)c2csc(N)n2)C(=O)N1C(=O)NS(=O)(=O)n1nc(-c2cc(=O)c(O)c[nH]2)n(CCCNS(C)(=O)=O)c1=O
K, ×10⁵ /M/s: 3

compound: C[C@H]1[C@H](NC(=O)/C(=N\OC(C)(C)C(=O)O)c2csc(N)n2)C(=O)N1C(=O)NS(=O)(=O)n1nc(-c2cc(=O)c(O)c[nH]2)n(C[C@@H](O)CO)c1=O
K, ×10⁵ /M/s: 7.2

----------
Assay: Volume of distribution at steady state in Han Wistar rat at 1 mg/kg, iv
Assay type: ADME, organism-based
Details: in vivo, read-out: Vdss
Would you mind labelling by Vd? At or over 0.2 L/kg is class 1, under is class 0.

compound: C[C@H]1[C@H](NC(=O)/C(=N\OC(C)(C)C(=O)O)c2csc(N)n2)C(=O)N1C(=O)NS(=O)(=O)n1nc(-c2cc(=O)c(O)c[nH]2)n(CCS(C)(=O)=O)c1=O
class label: class 1
//
compound: C[C@H]1[C@H](NC(=O)/C(=N\OC(C)(C)C(=O)O)c2csc(N)n2)C(=O)N1C(=O)NS(=O)(=O)n1nc(-c2cc(=O)c(O)c[nH]2)n(CCCS(C)(=O)=O)c1=O
class label: class 1
//
compound: C[C@H]1[C@H](NC(=O)/C(=N\OC(C)(C)C(=O)O)c2nsc(N)n2)C(=O)N1C(=O)NS(=O)(=O)n1nc(-c2cc(=O)c(O)c[nH]2)n(CCCS(C)(=O)=O)c1=O
class label: class 1
//
compound: C=C[C@H]1[C@H](NC(=O)/C(=N\OC(C)(C)C(=O)O)c2csc(N)n2)C(=O)N1C(=O)NS(=O)(=O)n1nc(-c2cc(=O)c(O)c[nH]2)n(CCCS(C)(=O)=O)c1=O
class label: class 0
//
compound: CC[C@H]1[C@H](NC(=O)/C(=N\OC(C)(C)C(=O)O)c2csc(N)n2)C(=O)N1C(=O)NS(=O)(=O)n1nc(-c2cc(=O)c(O)c[nH]2)n(CCCS(C)(=O)=O)c1=O
class label: class 1
